Assignment: determine reported Fit Curve Class for the given compounds.
- Test system: α7 integrin promoter
- PROTOCOL_DETAILS: muscle cell-based assay: α7βgal+/− myoblasts/myotubes, LacZ reporter, β-galactosidase cleavage of FDG
- Parameters: species or system mouse
- APPLIED_CONDITIONS: Table 12; key not given
Simply state the number, no unit and no words.

Challenge: Notebook entry, α7 integrin promoter assay: Fit Curve Class of O=C(O)c1cc(/N=C/c2c(O)oc3ccccc3c2=O)ccc1O = ?
Response given: 2.1

Challenge: Identify the measured Fit Curve Class of Cc1ccc(-c2onc3ccc(C(=O)/C=C/N(C)C)cc23)cc1 for α7 integrin promoter.
Response given: 1.2

Challenge: Form entry - test system: α7 integrin promoter; read-out: Fit Curve Class; compound: C/C(=N\OCC(=O)OC(C)C(=O)Nc1ccc(C(N)=O)cc1)c1ccc2c(c1)OCO2 (centres unmarked)
Response given: 2.1

Challenge: Param readout = Fit Curve Class; param system = α7 integrin promoter; param query = Cc1ccc(NC(=O)NCc2nc3ccccc3n2C)cc1 ; response: value
Response given: 2.1

Challenge: Item COc1ccccc1CNc1cc(C)ccn1 with α7 integrin promoter - Fit Curve Class?
Response given: 1.1

====

- Tested on: α7 integrin promoter
- PROTOCOL_DETAILS: muscle cell-based assay: α7βgal+/− myoblasts/myotubes, LacZ reporter, β-galactosidase cleavage of FDG
- Parameters: species or system mouse
- APPLIED_CONDITIONS: curve class number, key not given
Record form. Attribute: Fit Curve Class. Fill in for each entry.

Challenge: α7 integrin promoter / Fit Curve Class / COc1ccc(/C=C(\NC(=O)c2ccc(C)cc2)C(=O)Nc2ccc(C(=O)O)cc2)cc1 [Compound 160] : value?
Response given: 2.1

Challenge: What is its Fit Curve Class for α7 integrin promoter? Entry: CC(C)(C)N/C=C(\C#N)S(=O)(=O)c1ccc(Br)cc1 [Compound 173]
Response given: 2.2

Challenge: Report Fit Curve Class for CC(/C=C(\O)c1ccccc1)=N\c1ccc(Br)c(Cl)c1 [Compound 130] tested on α7 integrin promoter.
Response given: 2.1

Challenge: Given the entry CN(C#N)c1nccc(-c2cccs2)n1 [Compound 190] , what Fit Curve Class was observed with α7 integrin promoter?
Response given: 2.1

Challenge: Give the reported Fit Curve Class for COc1ccc(CN2CCNC(=O)C2CC(=O)NCCc2c[nH]c3ccccc23)c(OC)c1 (centres unmarked) [Compound 208] (system: α7 integrin promoter).
Response given: 2.2

====

- Tested on: α7 integrin promoter
- PROTOCOL_DETAILS: muscle cell-based assay: α7βgal+/− myoblasts/myotubes, LacZ reporter, β-galactosidase cleavage of FDG
- Design: species or system mouse
- APPLIED_CONDITIONS: curve class number, key not given
- Protocol: An α7 integrin null mouse was produced in which exon 1 of the gene encoding the α7 integrin was replaced by the LacZ reporter. […] A primary myoblast cell line (designated α7βgal^+/−) isolated from 10 day old α7^+/− pups were analyzed for the ability of β-galactosidase to report α7 integrin expression. α7βgal^+/− myoblasts were differentiated and subjected to X-gal staining and western analysis (FIGS. 1A and 1B). […]
Exercise: state measured Fit Curve Class for each of the compounds provided.
Format: numeric value only, no unit, no commentary.

Challenge: What does the record list as Fit Curve Class for O=C(Nc1ccc(Oc2cccnc2)cc1)c1ccccc1Cl ?
Response given: 2.1

Challenge: May I ask what Fit Curve Class has been recorded for COC(=O)C1SCC2C(=O)N(Cc3ccc(F)cc3)CC(=O)N21 (centres unmarked) ?
Response given: 2.1

Challenge: Return reported Fit Curve Class; argument: CC1=C(C#N)C(=O)N(C)C(=O)/C1=C\NNc1ccc(F)cc1
Response given: 2.1

Challenge: Need Fit Curve Class, item CCNC(=O)COC(=O)c1cc(-c2ccco2)nc2ccccc12
Response given: 2.1

Challenge: I'd like to know its Fit Curve Class. The compound in question is CC(=O)Nc1nonc1-c1nc2ccccc2n1CCC(C)C
Response given: 2.2

Challenge: Item COCCN1C=C(C(=O)OC)C(c2ccccc2Cl)C(C(=O)OC)=C1 has what recorded Fit Curve Class?
Response given: 2.1

Challenge: Item under review: Nc1nccc(-c2ccc(-n3cnc4ccccc43)cc2)n1 . Reported Fit Curve Class?
Response given: 2.2

Challenge: Quick one: Fit Curve Class of Cc1ccc(-c2nc(C)sc2CC(=O)OCC(=O)Nc2c(F)cccc2F)cc1 ?
Response given: 2.1

Challenge: Given Cc1cc(-c2ccccc2)n2nc(N)nc2n1 , state its recorded Fit Curve Class.
Response given: 2.1

Challenge: Dear colleague, I am looking for the recorded Fit Curve Class of the following compound: Sc1nnc(Cn2cnc3ccccc32)n1-c1ccccc1
Response given: 2.2

Challenge: # lookup: Fit Curve Class of COc1ccc(CNC(=O)COC(=O)CCc2c[nH]c3ccccc23)cc1
Response given: 2.1

Challenge: Give its Fit Curve Class value. Item: O=[N+]([O-])c1cccc(S(=O)(=O)N2CCN(S(=O)(=O)N3CCOCC3)CC2)c1
Response given: 2.2

Challenge: Look up Fit Curve Class: O=Cc1cnc(N2CCCCC2)s1
Response given: 2.1

Challenge: Requested read-out: Fit Curve Class. Entry: O=C(NC(=S)NCCC1=CCCCC1)c1ccc(Br)o1
Response given: 2.1

Challenge: What does the record list as Fit Curve Class for COc1ccc(CCNC(=O)c2cc(-c3cc(C)ccc3O)n[nH]2)cc1OC ?
Response given: 2.2

Challenge: Consider the compound Cc1ccc(-c2csnn2)cc1 and give its measured Fit Curve Class.
Response given: 2.1

Challenge: Any idea what its Fit Curve Class is? The compound is CCCOc1nc(SCCC)nc2c1cnn2-c1ccccc1
Response given: 2.1

Challenge: Fit Curve Class for O=S(=O)(NCC(c1ccco1)N1CCOCC1)c1ccc(Cl)cc1 (centres unmarked) ?
Response given: 2.1

Challenge: Fill in: Fit Curve Class of COc1cc(NC(=O)CN(C)S(=O)(=O)c2ccc3c(c2)CC(C)N3C(C)=O)cc(OC)c1OC (centres unmarked) is ___
Response given: 2.2

Challenge: Looking for the measured Fit Curve Class of CCOC(=O)/C(C(=O)c1ccccc1)=C(\N)NCCO , can you help?
Response given: 2.2
